target: human P2X7 (Homo sapiens (Human), UniProt Q99572); experiment: P2X7 antagonism in human PBMCs (IL-1β release after LPS + Bz-ATP, ELISA); format: cell-based; conditions: human PBMCs, test compound 10 μM
Sequence (Q99572 whole entry): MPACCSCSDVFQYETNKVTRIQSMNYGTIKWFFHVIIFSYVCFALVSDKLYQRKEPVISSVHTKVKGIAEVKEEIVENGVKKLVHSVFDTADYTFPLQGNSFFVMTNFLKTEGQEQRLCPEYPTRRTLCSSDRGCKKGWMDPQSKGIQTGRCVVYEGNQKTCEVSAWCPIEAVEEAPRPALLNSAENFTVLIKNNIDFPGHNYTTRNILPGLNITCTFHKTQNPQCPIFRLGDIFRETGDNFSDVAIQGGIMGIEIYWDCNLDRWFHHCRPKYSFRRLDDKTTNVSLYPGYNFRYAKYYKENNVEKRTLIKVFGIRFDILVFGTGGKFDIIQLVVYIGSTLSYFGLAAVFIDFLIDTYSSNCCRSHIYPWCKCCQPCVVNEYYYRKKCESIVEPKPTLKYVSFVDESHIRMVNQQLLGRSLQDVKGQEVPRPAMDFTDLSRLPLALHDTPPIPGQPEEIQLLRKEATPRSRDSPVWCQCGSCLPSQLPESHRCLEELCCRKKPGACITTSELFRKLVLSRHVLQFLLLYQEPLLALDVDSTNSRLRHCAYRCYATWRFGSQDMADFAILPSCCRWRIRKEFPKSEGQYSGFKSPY
property-measured: PBMC 10 μM (% control)

In the examples that follow, each entry is paired with its recorded PBMC 10 μM (% control).
In [3]: df
Out[3]:
                                   compound  unit_symbol  value
0  CC1c2ncn(-c3ccccn3)c2CCN1C(=O)c1cccc(C(F)(F)F)c1F (single isomer, unassigned) [Example 42]    % control    5.8
1  CCc1nc2c(n1-c1ccccc1)CCN(C(=O)c1cccc(Cl)c1Cl)C2 [Example 332]    % control   −9.5

(I) COc1ccnc(-n2nnc3c2CCN(C(=O)c2cccc(C(F)(F)F)c2Cl)C3)c1 [Example 136]
(II) Cc1ccnc(-n2nnc3c2CCN(C(=O)c2cccc(OC(F)(F)F)c2)[C@@H]3C)c1 (single isomer, unassigned) [Example 376]
(III) C[C@H]1Cc2c(nnn2-c2ncc(F)cn2)CN1C(=O)c1ccc(Cl)cc1F [Example 156]
Hey, can you sort those compounds up there by PBMC 10 μM (% control), smallest first? I'd appreciate it if you listed the labels in the requested order. III, I, II
(III: 1.8 % control, I: 5.3 % control, II: 96.3 % control)

(1) O=C(c1cccc(Cl)c1Cl)N1CCc2c(nnn2-c2ncccn2)C1 [Example 67]
(2) CC1c2nnn(-c3ncccn3)c2CCN1C(=O)c1ccc(Cl)cc1Cl (centres unmarked) [Example 283]
Which of these two has the smaller recorded PBMC 10 μM (% control): 1 or 2 ? State the label of the item chosen. 2

----------
target: human P2X7 (Homo sapiens (Human)); test: P2X7 antagonism in human PBMCs (IL-1β release after LPS + Bz-ATP, ELISA); assay type: cell-based; details: human PBMCs, test compound 1 μM
property-measured: PBMC 1 μM (% control)

Would you please look over these solved cases?
>>> df
                                   compound                             system  value
0  Cn1nc(-c2ccccc2)c2c1CN(C(=O)c1cccc(Cl)c1Cl)CC2.Cn1nc2c(c1-c1ccccc1)CCN(C(=O)c1cccc(Cl)c1Cl)C2 [Example 101]  human P2X7 (Homo sapiens (Human))    7.6
1  O=C(c1cccc(C(F)(F)F)c1Cl)N1CCc2c(ncn2-c2ccccc2)C1 [Example 2]  human P2X7 (Homo sapiens (Human))    7.9
2  CC1c2ncn(-c3ccccn3)c2CCN1C(=O)c1cccc(C(F)(F)F)c1Cl (centres unmarked) [Example 17]  human P2X7 (Homo sapiens (Human))    6.5
3  CCOC(=O)C1c2ncn(-c3cnccn3)c2CCN1C(=O)c1cccc(C(F)(F)F)c1Cl (centres unmarked) [Example 28]  human P2X7 (Homo sapiens (Human))    4.8

(P) Cn1nc(-c2cccnc2)c2c1CN(C(=O)c1cccc(C(F)(F)F)c1Cl)CC2 [Example 108]
(Q) O=C(c1ccnc(Cl)c1Cl)N1CCc2c(-c3ccccc3)n[nH]c2C1 [Example 104]
(R) O=C(c1cccc(C(F)(F)F)c1Cl)N1CCc2c(nnn2-c2cnccn2)C1 [Example 91]
(S) O=C(c1cccc(C(F)(F)F)c1Cl)N1C=Cc2c(nnn2-c2cnccn2)C1 [Example 89]
Given 4 compounds, produce a descending ranking by PBMC 1 μM (% control). A complete answer lists every label in the requested sequence. Q, R, P, S
(Q: 8.9 % control, R: 6.1 % control, P: 1.1 % control, S: −1.5 % control)
